Tested on: THP1 cells
ASSAY INFO: Lipopolysaccharide-activated THP1 cell TNF production assay
Type: cell-based, human
CONDITION SET: Homo sapiens, THP-1; LPS-induced TNF-α production in THP1 cells
PARAMETER: IC50

Please review the following examples before continuing.
Cc1cc(F)c(C(=O)NC2CC2)cc1-c1ccn2c(-c3c(F)cccc3Cl)nnc2c1: 25 to 100 nM
CNC(=O)c1ccc(C)c(-c2ccn3c(-c4ccccc4Cl)nnc3c2)c1: 25 to 100 nM
Cc1ccc(C(=O)NC2CC2)cc1-c1ccn2c(C3(C(F)(F)F)CC3)nnc2c1: < 25 nM

Let us move to another entry and its IC50.
Request: Requested read-out: IC50. Entry: Cc1ccc(C(=O)Nc2ccnn2C)cc1-c1ccn2c(-c3cc(F)cc(F)c3)ncc2c1
Result: 100 to 250 nM
